The measurements presented in this section are drawn from patent US20180244611A1.

- experimental_system: F508delCFTR (Homo sapiens, UniProt P13569, DEL508-508)
- Construct: expressed in transfected cells; host or cells: CFBE41o- human lung-derived epithelial cells (CFBE41o-F508delCFTR-HRP), doxycycline-inducible
- Sequence (P13569 with tags, fused parts or gaps DEL508-508): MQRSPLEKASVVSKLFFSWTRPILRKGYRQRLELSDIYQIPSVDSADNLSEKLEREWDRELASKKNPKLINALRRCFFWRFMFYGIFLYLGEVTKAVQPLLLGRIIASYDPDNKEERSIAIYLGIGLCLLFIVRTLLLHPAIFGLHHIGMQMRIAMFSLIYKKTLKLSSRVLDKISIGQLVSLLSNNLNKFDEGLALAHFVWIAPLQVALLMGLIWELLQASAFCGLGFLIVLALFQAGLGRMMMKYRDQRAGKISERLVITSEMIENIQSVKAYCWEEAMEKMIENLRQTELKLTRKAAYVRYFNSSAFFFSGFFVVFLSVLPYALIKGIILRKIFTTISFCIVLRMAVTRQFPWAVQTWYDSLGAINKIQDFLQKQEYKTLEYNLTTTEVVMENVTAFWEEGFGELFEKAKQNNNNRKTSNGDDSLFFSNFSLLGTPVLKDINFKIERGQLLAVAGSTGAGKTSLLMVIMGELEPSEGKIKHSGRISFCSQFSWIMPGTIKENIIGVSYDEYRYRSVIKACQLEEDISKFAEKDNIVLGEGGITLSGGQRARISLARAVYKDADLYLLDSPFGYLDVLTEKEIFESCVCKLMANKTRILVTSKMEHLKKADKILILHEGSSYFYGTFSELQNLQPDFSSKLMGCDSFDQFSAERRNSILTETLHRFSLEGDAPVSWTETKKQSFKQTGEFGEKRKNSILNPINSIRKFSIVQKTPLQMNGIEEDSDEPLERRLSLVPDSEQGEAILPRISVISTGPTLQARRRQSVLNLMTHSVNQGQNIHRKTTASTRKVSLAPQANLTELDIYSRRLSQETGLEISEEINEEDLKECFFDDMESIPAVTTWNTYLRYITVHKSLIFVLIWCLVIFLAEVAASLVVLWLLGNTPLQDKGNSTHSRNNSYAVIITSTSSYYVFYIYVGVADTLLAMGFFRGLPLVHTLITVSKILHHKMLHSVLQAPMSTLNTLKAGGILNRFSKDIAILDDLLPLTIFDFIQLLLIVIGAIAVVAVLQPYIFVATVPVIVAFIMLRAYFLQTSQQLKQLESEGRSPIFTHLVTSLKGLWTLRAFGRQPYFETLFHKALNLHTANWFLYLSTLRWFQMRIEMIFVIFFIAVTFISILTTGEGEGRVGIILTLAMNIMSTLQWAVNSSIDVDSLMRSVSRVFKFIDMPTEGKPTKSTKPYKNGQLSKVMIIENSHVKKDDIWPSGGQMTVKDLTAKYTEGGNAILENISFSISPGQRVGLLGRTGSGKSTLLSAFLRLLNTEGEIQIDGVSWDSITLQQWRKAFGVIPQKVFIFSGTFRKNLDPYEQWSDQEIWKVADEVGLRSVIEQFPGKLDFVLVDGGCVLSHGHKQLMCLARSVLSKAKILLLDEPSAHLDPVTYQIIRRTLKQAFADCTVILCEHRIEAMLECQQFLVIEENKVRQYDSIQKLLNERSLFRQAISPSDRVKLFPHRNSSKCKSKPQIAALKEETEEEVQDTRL
- protocol_text: Cell Surface Expression-Horse Radish Peroxidase (CSE-HRP) assay, test compound with co-corrector;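 on Maximum % activity (with co-corrector): percent of 2 µM positive control corrector over DMSO; co-corrector is that same compound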
- Type: cell-based
- setup_conditions: maximum at any tested concentration, normalized to positive control, with 2 μM co-corrector
assay_metric: Maximum % activity (with co-corrector)

# molecule, result
data = [
    ("COc1ccc(Cl)c2c1CC[C@@H]2C(=O)NS(=O)(=O)c1cccc2ccccc12 (single isomer, unassigned)", "+++ (≥350)"),
    ("Cc1ccc(S(=O)(=O)NC(=O)C2CCc3c(Cl)cccc32)nc1 (centres unmarked)", "+ (<150)"),
    ("CCCS(=O)(=O)NC(=O)C1CCc2c(OC)cccc21 (centres unmarked)", "+ (<150)"),
    ("COc1ncc(C2CCC2)c2c1[C@H](C(=O)NS(=O)(=O)c1cccc3ccccc13)CCC2", "+++ (≥350)"),
    ("COc1cccc(CC2(C(=O)NS(=O)(=O)c3cccc4ccccc34)CCc3c(Cl)cccc32)n1 (centres unmarked)", "+++ (≥350)"),
    ("CC1(C(=O)NS(=O)(=O)c2cccc3ccccc23)CCc2c(Cl)cccc21 (centres unmarked)", "+++ (≥350)"),
    ("COc1ccc(C2CCC2)c2c1CCC[C@H]2C(=O)NS(=O)(=O)c1cccc2ccccc12", "+++ (≥350)"),
    ("COc1cccc2c1CCC2C(=O)NS(=O)(=O)c1ccc(Cl)cc1Cl (centres unmarked)", "+ (<150)"),
]

----------
Quick reference for EC50 among some molecules
- experimental_system: F508delCFTR (Homo sapiens, UniProt P13569, DEL508-508)
- Construct: expressed in transfected cells; host or cells: CFBE41o- human lung-derived epithelial cells (CFBE41o-F508delCFTR-HRP), doxycycline-inducible
- protocol_text: Cell Surface Expression-Horse Radish Peroxidase (CSE-HRP) assay, test compound with co-corrector
- Format: cell-based
- setup_conditions: with 2 μM co-corrector

# molecule, experimental_system, EC50
measured = [
    ("COc1cccc2c1CCC2C(=O)NS(=O)(=O)c1ccc(O)nc1 (centres unmarked)", "F508delCFTR (Homo sapiens, UniProt P13569, DEL508-508)", "≥ 10 µM"),
    ("O=C(NS(=O)(=O)c1cccc2ccccc12)C1CCc2c(Cl)cccc21 (centres unmarked)", "F508delCFTR (Homo sapiens, UniProt P13569, DEL508-508)", "3 to 10 µM"),
    ("COCc1ccc(OC)c2c1CCC2C(=O)NS(=O)(=O)c1cccc2ccccc12 (centres unmarked)", "F508delCFTR (Homo sapiens, UniProt P13569, DEL508-508)", "< 3 µM"),
    ("COCCS(=O)(=O)NC(=O)C1CCc2c(Cl)cccc21 (centres unmarked)", "F508delCFTR (Homo sapiens, UniProt P13569, DEL508-508)", "≥ 10 µM"),
    ("COC(=O)c1cccc2c(S(=O)(=O)NC(=O)C3CCc4c(Br)ccc(OC)c43)cccc12 (centres unmarked)", "F508delCFTR (Homo sapiens, UniProt P13569, DEL508-508)", "3 to 10 µM"),
    ("CCC1(C(=O)NS(=O)(=O)c2cccc(N3CC(F)(F)C3)c2C)CCc2c(Cl)cccc21 (centres unmarked)", "F508delCFTR (Homo sapiens, UniProt P13569, DEL508-508)", "3 to 10 µM"),
    ("COc1cccc2c1CCC2C(=O)NS(=O)(=O)c1cc(C)c(N)cc1Cl (centres unmarked)", "F508delCFTR (Homo sapiens, UniProt P13569, DEL508-508)", "3 to 10 µM"),
    ("CCC1(C(=O)NS(=O)(=O)c2ccccc2F)CCc2c(Cl)cccc21 (centres unmarked)", "F508delCFTR (Homo sapiens, UniProt P13569, DEL508-508)", "< 3 µM"),
    ("CCC1(C(=O)NS(=O)(=O)c2cccc(N3CCCCC3)c2C)CCc2c(Cl)cccc21 (centres unmarked)", "F508delCFTR (Homo sapiens, UniProt P13569, DEL508-508)", "3 to 10 µM"),
    ("COc1ccc(OC)c2c1CC[C@H]2C(=O)NS(=O)(=O)c1cccc2ccccc12", "F508delCFTR (Homo sapiens, UniProt P13569, DEL508-508)", "3 to 10 µM"),
    ("COc1ccc(C2CCC2)c2c1C(C(=O)NS(=O)(=O)c1cccn3nccc13)CC2 (centres unmarked)", "F508delCFTR (Homo sapiens, UniProt P13569, DEL508-508)", "< 3 µM"),
    ("COc1ccc(C2CCC2)c2c1[C@H](C(=O)NS(=O)(=O)c1cccc3ccccc13)C2 (single isomer, unassigned)", "F508delCFTR (Homo sapiens, UniProt P13569, DEL508-508)", "< 3 µM"),
    ("COc1ccc(/C=C/c2ccccc2)c2c1CCCC2C(=O)NS(=O)(=O)c1cccc2ccccc12 (centres unmarked)", "F508delCFTR (Homo sapiens, UniProt P13569, DEL508-508)", "< 3 µM"),
    ("CCCS(=O)(=O)NC(=O)C1CCc2c(OC)cccc21 (centres unmarked)", "F508delCFTR (Homo sapiens, UniProt P13569, DEL508-508)", "≥ 10 µM"),
    ("COc1ccc(C2CCC2)c2c1[C@H](C(=O)NS(=O)(=O)c1cccn3nccc13)CC2", "F508delCFTR (Homo sapiens, UniProt P13569, DEL508-508)", "< 3 µM"),
    ("O=C(NS(=O)(=O)c1cccc2ccccc12)C1CCc2c(Br)ccc(OC(F)F)c21 (centres unmarked)", "F508delCFTR (Homo sapiens, UniProt P13569, DEL508-508)", "< 3 µM"),
    ("COc1ccc(-c2ccc(C)cc2)c2c1CCCC2C(=O)NS(=O)(=O)c1cccc2ccccc12 (centres unmarked)", "F508delCFTR (Homo sapiens, UniProt P13569, DEL508-508)", "< 3 µM"),
]

----------
- experimental_system: F508delCFTR (Homo sapiens, UniProt P13569, DEL508-508)
- Construct: expressed in transfected cells; host or cells: CFBE41o- human lung-derived epithelial cells (CFBE41o-F508delCFTR-HRP), doxycycline-inducible
- protocol_text: Cell Surface Expression-Horse Radish Peroxidase (CSE-HRP) assay, test compound without co-corrector
- Format: cell-based
- setup_conditions: test compound without co-corrector
Below is a list of entries, each paired with its recorded EC50 value.

# compound, EC50
rows = [
    ("CCCC(=O)Nc1ccc(S(=O)(=O)NC(=O)C2CCc3c(OC)cccc32)cc1 (stereo not drawn)", "≥ 10 µM"),
    ("COc1cccc2c1CCC2C(=O)NS(=O)(=O)c1ccc(F)cc1F (stereo not drawn)", "≥ 10 µM"),
    ("Cc1ccccc1S(=O)(=O)NC(=O)C1CCc2c(-c3ccc(N(C)C)nc3)cccc21 (stereo not drawn)", "≥ 10 µM"),
    ("COc1cccc2c1CCC2C(=O)NS(=O)(=O)c1cccc(Cl)c1F (stereo not drawn)", "≥ 10 µM"),
    ("Cc1ccccc1S(=O)(=O)NC(=O)[C@H]1CCc2c(Cl)cccc21 (single isomer, unassigned)", "3 to 10 µM"),
    ("COc1ccc(OC)c2c1CCCC2C(=O)NS(=O)(=O)c1cccc2ccccc12 (stereo not drawn)", "3 to 10 µM"),
    ("O=C(NS(=O)(=O)c1cccc2ccccc12)C1CCc2c(Cl)cccc21 (stereo not drawn)", "3 to 10 µM"),
    ("COc1ccc(C2=CCOCC2)c2c1CCCC2C(=O)NS(=O)(=O)c1cccc2ccccc12 (stereo not drawn)", "< 3 µM"),
    ("CC[C@@]1(C(=O)NS(=O)(=O)c2cccc3ccccc23)CCCc2cccc(Cl)c21", "< 3 µM"),
    ("COc1cccc2c1CCC2C(=O)NS(=O)(=O)c1ccc(O)cc1 (stereo not drawn)", "≥ 10 µM"),
    ("Cc1ccccc1S(=O)(=O)NC(=O)C1CCc2ccccc2C1 (stereo not drawn)", "≥ 10 µM"),
    ("COc1cccc2c1C(C(=O)NS(=O)(=O)c1cccc3ccccc13)CCC2 (stereo not drawn)", "3 to 10 µM"),
    ("COc1cccc2c1CCC2C(=O)NS(=O)(=O)c1ccccc1Cl (stereo not drawn)", "3 to 10 µM"),
    ("COc1cccc2c1CCC2C(=O)NS(=O)(=O)c1cc([N+](=O)[O-])ccc1Cl (stereo not drawn)", "≥ 10 µM"),
    ("COc1ccc(Cl)c2c1C(C(=O)NS(=O)(=O)c1cccc3ccccc13)CC2 (stereo not drawn)", "3 to 10 µM"),
    ("COc1ccc2c(c1)CCC2C(=O)NS(=O)(=O)c1ccccc1C (stereo not drawn)", "≥ 10 µM"),
    ("O=C(NS(=O)(=O)c1cccc2ccccc12)C1CCCc2c(OC3CCOCC3)ccc(Br)c21 (stereo not drawn)", "3 to 10 µM"),
    ("O=C(NS(=O)(=O)c1ccccc1Cl)C1CCc2c(Cl)cccc21 (stereo not drawn)", "3 to 10 µM"),
]
